- System: IL-6
- Protocol Details: Bovine whole blood assay, IL-6
- Format: cell-based
- Test Conditions: Bos taurus, fresh whole bovine blood, LPS 1 μg/mL
Exercise: for every item that follows, state its recorded pIC50.
The meaning of pIC50 here: minus log10 of the concentration in molar units.

Annotate the molecule CC[C@H]1OC(=O)[C@H](C)[C@@H](O[C@H]2C[C@@](C)(OC)[C@](O)(CNCCN3CCOC3=O)[C@H](C)O2)[C@H](C)[C@@H](O[C@@H]2O[C@H](C)C[C@H]3[C@H]2OC(C(F)(F)F)N3C)[C@](C)(O)C[C@@H](C)CN[C@H](C)[C@@H](O)[C@]1(C)O (stereo partly shown) [Example A-24] with its measured pIC50.
4.54

Identify measured pIC50 associated with CC[C@H]1OC(=O)[C@H](C)[C@@H](O[C@H]2C[C@@](C)(OC)[C@](O)(CNCCN3CCCC3=O)[C@H](C)O2)[C@H](C)[C@@H](O[C@@H]2O[C@H](C)C[C@H]3[C@H]2OC(C(F)(F)F)N3C)[C@](C)(O)C[C@@H](C)CN[C@H](C)[C@@H](O)[C@]1(C)O (stereo partly shown) [Example A-12]
4.62

Provide measured pIC50 value, entry: CC[C@H]1OC(=O)[C@H](C)[C@@H](O[C@H]2C[C@@](C)(OC)[C@](O)(CNC(CO)CO)[C@H](C)O2)[C@H](C)[C@@H](O[C@@H]2O[C@H](C)C[C@H]3[C@H]2OC(C(F)(F)F)N3C)[C@](C)(O)C[C@@H](C)CN[C@H](C)[C@@H](O)[C@]1(C)O (stereo partly shown) [Example A-4]
3.70

Given the molecule CC[C@H]1OC(=O)[C@H](C)[C@@H](O[C@H]2C[C@@](C)(OC)[C@](O)(CNCCO)[C@H](C)O2)[C@H](C)[C@@H](O[C@@H]2O[C@H](C)C[C@H]3[C@H]2OC(C(F)(F)F)N3C)[C@](C)(O)C[C@@H](C)CN[C@H](C)[C@@H](O)[C@]1(C)O (stereo partly shown) [Example A-3] , write its reported pIC50.
4.40

###

- Test system: IL-1β
- Protocol Details: Bovine whole blood assay, IL-1β;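 further: compound concentration at which rising IL-1β release signals cytotoxicity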
- Type: cell-based
- Test Conditions: overstimulation of IL-1β, perceived cellular toxicity concentration
Measurement Type: IL-1β OS of LPS

Give a short answer stating reported IL-1β OS of LPS for CC[C@H]1OC(=O)[C@H](C)[C@@H](O[C@H]2C[C@@](C)(OC)[C@](O)(CNC(CO)CO)[C@H](C)O2)[C@H](C)[C@@H](O[C@@H]2O[C@H](C)C[C@H]3[C@H]2OC(C(F)(F)F)N3C)[C@](C)(O)C[C@@H](C)CN[C@H](C)[C@@H](O)[C@]1(C)O (stereo partly shown) .
80 µM

Report IL-1β OS of LPS, nothing else, for this compound: CCCNC[C@]1(O)[C@H](C)O[C@@H](O[C@H]2[C@H](C)[C@@H](O[C@@H]3O[C@H](C)C[C@H]4[C@H]3OC(C(F)(F)F)N4CC(C)C)[C@](C)(O)C[C@@H](C)CN[C@H](C)[C@@H](O)[C@](C)(O)[C@@H](CC)OC(=O)[C@@H]2C)C[C@@]1(C)OC (stereo partly shown)
2 µM

Identify measured IL-1β OS of LPS corresponding to CC[C@H]1OC(=O)[C@H](C)[C@@H](O[C@H]2C[C@@](C)(OC)[C@](O)(CNCCNC(C)=O)[C@H](C)O2)[C@H](C)[C@@H](O[C@@H]2O[C@H](C)C[C@H]3[C@H]2OC(C(F)(F)F)N3C)[C@](C)(O)C[C@@H](C)CN[C@H](C)[C@@H](O)[C@]1(C)O (stereo partly shown)
40 µM

Kindly indicate its recorded IL-1β OS of LPS. Item: CC[C@H]1OC(=O)[C@H](C)[C@@H](O[C@H]2C[C@@](C)(OC)[C@](O)(CN3CCN(C)CC3)[C@H](C)O2)[C@H](C)[C@@H](O[C@@H]2O[C@H](C)C[C@H]3[C@H]2OC(C(F)(F)F)N3C)[C@](C)(O)C[C@@H](C)CN[C@H](C)[C@@H](O)[C@]1(C)O (stereo partly shown)
5 µM
